These entries and their values trace back to ChEMBL document CHEMBL3885861.

# Species on record: Rattus norvegicus
# Test summary: Open TG-GATES - Regimen: Single
# Assay type: toxicity, organism-based, Sprague-Dawley
# Set-up: regimen Single, gender Male, age 6 weeks
# Reported conditions: in vivo, po, 0 mg/kg, 6 h, tissue Plasma, route gavage, dose level Control
Collected TG values appear next to each entry.
Hi! Could you send only the number? It should be in mg/dL, unit omitted.

Take a look at these entries with their results.
[[record]]
compound = "O=C1NC(=O)C(c2ccccc2)(c2ccccc2)N1"
measurement_kind = "TG"
value_observed = 44.2

[[record]]
compound = "CS(=O)(=O)Nc1ccc([N+](=O)[O-])cc1Oc1ccccc1 [NIMESULIDE]"
measurement_kind = "TG"
value_observed = 52.8

[[record]]
compound = "C=CCO"
measurement_kind = "TG"
value_observed = 66.2


Task: Dear colleague, please send me the reported TG for COc1ccc(Cl)cc1C(=O)NCCc1ccc(S(=O)(=O)NC(=O)NC2CCCCC2)cc1 [GLYBURIDE] when you can.
Result: 65.2

Task: Dear colleague, please send me the reported TG for COc1ccc(O)c(C(C)(C)C)c1.COc1ccc(O)cc1C(C)(C)C [BUTYLATED HYDROXYANISOLE] when you can.
Result: 58.2

Task: Dear colleague, please send me the reported TG for CNCCC(Oc1ccc(C(F)(F)F)cc1)c1ccccc1.Cl (stereo unspecified) [FLUOXETINE HYDROCHLORIDE] when you can.
Result: 45.8

Task: Dear colleague, please send me the reported TG for O=C1CN(/N=C/c2ccc(-c3ccc([N+](=O)[O-])cc3)o2)C(O)=N1 when you can.
Result: 58.2

Task: Dear colleague, please send me the reported TG for Cc1cnc(NC(=O)C2=C(O)c3ccccc3S(=O)(=O)N2C)s1 when you can.
Result: 55.2

Task: Dear colleague, please send me the reported TG for S=C=Nc1cccc2ccccc12 [1-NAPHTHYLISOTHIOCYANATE] when you can.
Result: 63.8

Task: Dear colleague, please send me the reported TG for Cn1cnc([N+](=O)[O-])c1Sc1ncnc2nc[nH]c12 when you can.
Result: 66.8

Task: Dear colleague, please send me the reported TG for Cc1cccc(Nc2cc(Cl)nc(SCC(=O)O)n2)c1C when you can.
Result: 78
